Test system: corn (Zea mays)
Experiment: Test B preemergence
Type: in vivo
Conditions: Preemergence, Rate 500 g/ha; scale 0 to 100, 0 no effect, 100 complete control
Each entry below carries its reported Plant response rating, Corn.
Lab note: write the figure by itself, no unit.

{"compound": "CC(C)(C)c1ccn(C2OCN(c3cccc(OC(F)F)c3)C2=O)n1 (stereo not drawn) [Compound 133]", "targetDesc": "corn (Zea mays)", "Plant response rating, Corn": 90}
{"compound": "CCCCC(CCCC)c1ccn(C2SCN(c3cccc(OC(F)(F)F)c3)C2=O)n1 (stereo not drawn) [Compound 115]", "targetDesc": "corn (Zea mays)", "Plant response rating, Corn": 0}
{"compound": "CCOc1cc(N2CCC(n3ccc(C(C)(C)C)n3)C2=O)ccc1C (stereo not drawn) [Compound 106]", "targetDesc": "corn (Zea mays)", "Plant response rating, Corn": 30}
{"compound": "COc1cc(N2CCC(n3ccc(C(C)C)n3)C2=O)ccc1C (stereo not drawn) [Compound 85]", "targetDesc": "corn (Zea mays)", "Plant response rating, Corn": 30}
{"compound": "CC(C)(C)c1ccn(C2CCN(c3cccc(I)c3)C2=O)n1 (stereo not drawn) [Compound 88]", "targetDesc": "corn (Zea mays)", "Plant response rating, Corn": 20}
{"compound": "O=C1C(n2ccc(C3CCC3)n2)OCN1c1cccc(C(F)(F)F)c1 (stereo not drawn) [Compound 39]", "targetDesc": "corn (Zea mays)", "Plant response rating, Corn": 0}

Enquiry: Form field: Plant response rating, Corn recorded for CC(C)(C)c1ccn(C2CCN(c3cccc(OC(F)(F)F)c3)C2=O)n1 (stereo not drawn) [Compound 49] with corn (Zea mays) (enter value)
Return: 0

Enquiry: Quick check: Plant response rating, Corn on corn (Zea mays), item CCCC(C)c1ccn(C2OCN(c3cccc(C(F)(F)F)c3)C2=O)n1 (stereo not drawn) [Compound 89] ?
Return: 0

Enquiry: Entry CC(C)(C)c1ccn(C2CCN(c3cc(C(F)(F)F)cc(C(F)(F)F)c3)C2=O)n1 (stereo not drawn) [Compound 54] , system corn (Zea mays): what Plant response rating, Corn was measured?
Return: 0

---

Tested on: rice (Oryza saliva)
Assay: Test C flooded paddy test
Assay type: in vivo
Conditions: Flooded Paddy; Rate 500 g/ha; scale 0 to 100, 0 no effect, 100 complete control
# Rice plant response rating annotations
The answer should be a number; do not append a unit.

Record excerpt, results attached:
{"compound": "COc1cc(OC)cc(N2CCC(n3ccc(C(C)(C)C)n3)C2=O)c1 (stereo not drawn) [Compound 71]", "Rice plant response rating": 60}
{"compound": "CCC(C)c1ccn(C2OCN(c3cccc(OC(F)F)c3)C2=O)n1 (stereo not drawn) [Compound 134]", "Rice plant response rating": 90}

# context switch: different compound, same Rice plant response rating
Enquiry: Find Rice plant response rating (rice (Oryza saliva)) for the entry CCC(CC)c1ccn(C2CCN(c3cccc(OC(C)C)c3)C2=O)n1 (stereo not drawn) [Compound 84]
Return: 90

---

Test system: Surinam grass (Brachiaria decumbens)
Test: Test B preemergence
Assay type: in vivo
Details: Preemergence, Rate 500 g/ha; scale 0 to 100, 0 no effect, 100 complete control
Kindly apply the following: y if Plant response rating, Surinam grass is less than 70, n in every other case.

{"compound": "CCC(CC)c1ccn(C2CCN(c3cccc(OC)c3)C2=O)n1 (stereo not drawn)", "group": "n"}
{"compound": "CC(C)(C)c1ccn(C2CCN(c3cc(Cl)cc(Cl)c3)C2=O)n1 (stereo not drawn)", "group": "y"}
{"compound": "CC(C)c1ccn(C2SCN(c3cccc(OC(F)F)c3)C2=O)n1 (stereo not drawn)", "group": "n"}
{"compound": "CCCCC(C)c1ccn(C2SCN(c3cccc(C(F)(F)F)c3)C2=O)n1 (stereo not drawn)", "group": "y"}
{"compound": "Cc1cc(N2CCC(n3ccc(C(C)(C)C)n3)C2=O)cc(Br)c1C (stereo not drawn)", "group": "y"}

Enquiry: Lab log: compare recorded Plant response rating, Surinam grass with 70; is it strictly lower for CC1(c2ccn(C3OCN(c4cccc(OC(F)(F)F)c4)C3=O)n2)CC1 (stereo not drawn) ?
Return: y

Enquiry: Does the reported Plant response rating, Surinam grass of CC(C)c1ccn(C2OCN(c3cccc(C(F)(F)F)c3)C2=O)n1 (stereo not drawn) stay below 70?
Return: y

Enquiry: Here's an entry: CCC(CC)c1ccn(C2OCN(c3cccc(OC(F)(F)F)c3)C2=O)n1 (stereo not drawn) . Is its Plant response rating, Surinam grass below 70?
Return: y

Enquiry: Is 70 strictly greater than the compound's reported Plant response rating, Surinam grass? compound: CCCC(C)c1ccn(C2CCN(c3ccc(Cl)c(OC)c3)C2=O)n1 (stereo not drawn)
Return: y

Enquiry: For Cc1cc(N2CCC(n3ccc(C(C)(C)C)n3)C2=O)ccc1Cl (stereo not drawn) , is the recorded Plant response rating, Surinam grass below the cut-off of 70?
Return: y

Enquiry: Record CC1(C)CCc2cn(C3CCN(c4cccc(C(F)(F)F)c4)C3=O)nc21 (stereo not drawn) : is its Plant response rating, Surinam grass strictly below 70?
Return: y

Enquiry: Answer whether the compound CCC(C)c1ccn(C2CCN(c3cccc(OC(C)C)c3)C2=O)n1 (stereo not drawn) has Plant response rating, Surinam grass strictly less than 70
Return: n

Enquiry: Please determine if CCCC(C)c1ccn(C2OCN(c3cccc(OC(F)F)c3)C2=O)n1 (stereo not drawn) is below 70 in terms of Plant response rating, Surinam grass.
Return: n

---

System: rice (Oryza saliva)
Experiment: Test C flooded paddy test
Type: in vivo
Details: Flooded Paddy; Rate 500 g/ha; scale 0 to 100, 0 no effect, 100 complete control
Parameter threshold = 20. Response is YES when Rice plant response rating meets or exceeds it, else NO.

Study these solved cases before continuing.
{"compound": "CCCC(C)c1ccn(C2CCN(c3cccc(C(F)(F)F)c3)C2=O)n1 (stereo not drawn)", "group": "YES"}
{"compound": "CCOc1cccc(N2CCC(n3ccc(C(C)CC)n3)C2=O)c1 (stereo not drawn)", "group": "YES"}
{"compound": "CCCC(C)c1ccn(C2OCN(c3cccc(C(F)(F)F)c3)C2=O)n1 (stereo not drawn)", "group": "YES"}
{"compound": "O=C1C(n2ccc(C3CCCCC3)n2)OCN1c1cccc(C(F)(F)F)c1 (stereo not drawn)", "group": "NO"}
{"compound": "CC(C)(C)c1ccn(C2CCN(c3cc(Cl)cc(Cl)c3)C2=O)n1 (stereo not drawn)", "group": "NO"}

Enquiry: Please indicate if the recorded Rice plant response rating for CC(C)(C)c1ccn(C2CCN(c3cccc(C#N)c3)C2=O)n1 (stereo not drawn) meets or exceeds 20.
Return: NO

Enquiry: Quick check, Rice plant response rating >= 20? CCC(CC)c1ccn(C2CCN(c3ccc(Br)c(OC)c3)C2=O)n1 (stereo not drawn)
Return: YES

Enquiry: Item CCC(C)c1ccn(C2SCN(c3cccc(OC(F)(F)F)c3)C2=O)n1 (stereo not drawn) with Rice plant response rating of 20 or above?
Return: YES

---

Tested on: corn (Zea mays)
Test: Test C postemergence
Type: in vivo
Details: Rate 250 g/ha, scale 0 to 100 (0 no effect, 100 complete control)
measuredAttribute: Plant response rating, Corn
Please reply with the value in numeric form only.

{"compound": "O=C1C(n2ccc(C3CCC3)n2)SCN1c1cccc(OC(F)(F)F)c1 (centres unmarked)", "Plant response rating, Corn": 0}
{"compound": "CCC(CC)c1ccn(C2SCN(c3cccc(C(F)(F)F)c3)C2=O)n1 (centres unmarked)", "Plant response rating, Corn": 20}
{"compound": "COc1cc(N2CCC(n3ccc(C(C)(C)C)n3)C2=O)ccc1Br (centres unmarked)", "Plant response rating, Corn": 0}
{"compound": "CC(C)(C)c1ccn(C2SCN(c3cccc(OC(F)(F)F)c3)C2=O)n1 (centres unmarked)", "Plant response rating, Corn": 30}
{"compound": "CC(C)(C)c1ccn(C2SCN(c3cccc(OC(F)F)c3)C2=O)n1 (centres unmarked)", "Plant response rating, Corn": 20}

Enquiry: Observed Plant response rating, Corn on corn (Zea mays) for COc1cc(N2CCC(n3ccc(C(C)(C)C)n3)C2=O)ccc1Cl (centres unmarked) , please.
Return: 0

Enquiry: Write down the reported Plant response rating, Corn of CCCC(C)c1ccn(C2OCN(c3cccc(OC(F)(F)F)c3)C2=O)n1 (centres unmarked) , test system: corn (Zea mays).
Return: 0

Enquiry: Query for corn (Zea mays): what Plant response rating, Corn does the record show for CCC(CC)c1ccn(C2OCN(c3cccc(OC(F)F)c3)C2=O)n1 (centres unmarked) ?
Return: 20

---

Tested on: barnyardgrass (Echinochloa crus-galli)
Assay: Test C flooded paddy test
Assay type: in vivo
Conditions: Flooded Paddy; Rate 250 g/ha; scale 0 to 100, 0 no effect, 100 complete control
measuredAttribute: Barnyardgrass plant response rating
No unit in the answer, please; the number alone is enough.

{"molecule": "O=C1C(n2ccc(C3CCCCC3)n2)OCN1c1cccc(C(F)(F)F)c1 (centres unmarked) [Compound 51]", "resultNumber": 90}
{"molecule": "CCCC(C)c1ccn(C2CCN(c3ccc(Cl)c(OC)c3)C2=O)n1 (centres unmarked) [Compound 121]", "resultNumber": 20}

Enquiry: What value of Barnyardgrass plant response rating has been recorded for this entry: CC(C)OC(=O)c1cccc(N2CCC(n3ccc(C(C)(C)C)n3)C2=O)c1 (centres unmarked) [Compound 124]
Return: 0

Enquiry: Would you mind telling me what Barnyardgrass plant response rating value was observed for CC1CCc2cn(C3CCN(c4cccc(C(F)(F)F)c4)C3=O)nc21 (centres unmarked) [Compound 11] ?
Return: 30

Enquiry: Requested read-out: Barnyardgrass plant response rating. Entry: CC(C)(C)c1ccn(C2SCN(c3cccc(OC(F)(F)F)c3)C2=O)n1 (centres unmarked) [Compound 30]
Return: 100

Enquiry: Name the reported Barnyardgrass plant response rating value associated with the molecule CCC(C)c1ccn(C2CCN(c3cccc(OC(C)C)c3)C2=O)n1 (centres unmarked) [Compound 83]
Return: 70

Enquiry: Quick one: Barnyardgrass plant response rating for CCCCC(CCCC)c1ccn(C2SCN(c3cccc(OC(F)(F)F)c3)C2=O)n1 (centres unmarked) [Compound 115] ?
Return: 0
